Below, each entry is listed with its recorded LD50.
Assay: Acute oral toxicity in the rat
Details: in vivo
Description: | *Acute oral toxicity in the rat.
measured-metric: LD50

input_smiles=CCOC(=O)c1nc2sc(CC)cc2c(=O)[nH]1 result="1600 to 5000 mg/kg"
input_smiles=CCOC(=O)c1nc2sc3c(c2c(=O)[nH]1)CCCC3 result="> 3160 mg/kg"

Reference source for all entries: patent US4234581A
